Target Under Test: CYP3A4 (Homo sapiens, UniProt P08684)
Sequence (P08684 whole entry): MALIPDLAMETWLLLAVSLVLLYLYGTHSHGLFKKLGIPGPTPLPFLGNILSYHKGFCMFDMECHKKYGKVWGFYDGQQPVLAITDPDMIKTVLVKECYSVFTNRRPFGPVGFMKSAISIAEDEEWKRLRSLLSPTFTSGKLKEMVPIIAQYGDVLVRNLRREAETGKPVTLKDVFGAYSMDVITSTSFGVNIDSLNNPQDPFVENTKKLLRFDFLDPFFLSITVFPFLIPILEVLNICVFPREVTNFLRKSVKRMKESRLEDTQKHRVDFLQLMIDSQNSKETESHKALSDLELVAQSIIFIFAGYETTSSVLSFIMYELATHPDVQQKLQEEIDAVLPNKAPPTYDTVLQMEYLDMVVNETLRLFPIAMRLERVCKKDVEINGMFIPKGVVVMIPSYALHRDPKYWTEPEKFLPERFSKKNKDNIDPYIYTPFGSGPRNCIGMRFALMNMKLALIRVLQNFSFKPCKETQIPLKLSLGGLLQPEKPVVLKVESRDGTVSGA
Assay Overview: Inhibition of cytochrome P450, CYP3A4
Assay type: in vitro ADME
Measurement Setup: CYP3A4 enzyme, pH 7.4, probe BOMCC, compound concentration 1 μM, read-out: CYP inhibition/% 3A4
Please go through the items and note down their inhibition at 30 min, 1 µM.
Lab book: enter the figure in %, no units written.

Q: Checklist item: inhibition at 30 min, 1 µM tested on CYP3A4 (Homo sapiens, UniProt P08684), entry "CS(C)(=O)=Nc1cccc(-n2ncc3cnc(Nc4ccc(N5CCOCC5)cc4)nc32)n1" , value?
A: -26.1

Q: Tell me reported inhibition at 30 min, 1 µM for "CN1CCN(c2ccc(Nc3ncc4cnn(-c5cccc(C(C)(C)O)n5)c4n3)cc2)CC1" , tested with CYP3A4 (Homo sapiens, UniProt P08684).
A: 0

Q: Kindly state the measured inhibition at 30 min, 1 µM obtained for "CN1CCN(c2ccc(Nc3ncc4cnn(-c5cccc(N=S(C)(C)=O)n5)c4n3)cc2)CC1" with CYP3A4 (Homo sapiens, UniProt P08684).
A: 8.1

---

Exercise: for every item that follows, state its recorded efflux ratio at 90 min, 10 µM.
Assay Overview: Membrane permeability study (Caco-2)
Type: in vitro ADME
Measurement Setup: human, Caco-2, pH 7.4; read-out: Efflux Ration

Q: What measured efflux ratio at 90 min, 10 µM goes with Cc1cc(Nc2ncc3cnn(-c4cccc(N=S(C)(C)=O)n4)c3n2)ccc1N1CCN(C)CC1 [Compound 16] ?
A: 2.51

Q: Which efflux ratio at 90 min, 10 µM is reported for this molecule? CN1CCN(c2ccc(Nc3ncc4cnn(-c5cccc(N=S(C)(C)=O)n5)c4n3)cc2)CC1 [Compound 1]
A: 4.67

Q: # efflux ratio at 90 min, 10 µM lookup, item Cc1cc(Nc2ncc3cnn(-c4cccc(N=S(C)(C)=O)n4)c3n2)ccc1N1CCC(N(C)C)CC1 [Compound 14]
A: 3.54

Q: Give the measured efflux ratio at 90 min, 10 µM of CN1CCN(c2ccc(Nc3ncc4cnn(-c5ccc6c(c5)C(C)(O)CO6)c4n3)cc2)CC1 (centres unmarked) [Compound 40] .
A: 0.89

Q: What measured efflux ratio at 90 min, 10 µM goes with CCn1cnc2ccc(-n3ncc4cnc(Nc5ccc(N6CCN(C)CC6)cc5)nc43)cc21 [Compound 45] ?
A: 1.79

---

Tested on: MIA Paca-2 cells
Assay Overview: Anti-proliferative effect by Cell Titer-Glo, MIA Paca-2
Assay type: cell-based
Measurement Setup: Homo sapiens, 72 h; MIA Paca-2 cells, 3 days, Cell Titer-Glo; read-out: IC50 measured value MIA Paca-2
Provide the reported IC50 of each item.

Q: Fill blank: measured IC50 of the molecule "CN1CCN(c2ccc(Nc3ncc4cnn(-c5cccc(-n6ccccc6=O)c5)c4n3)cc2)CC1" is ____.
A: 1 to 5 µM

Q: Which measured IC50 value corresponds to "CN1CCN(c2ccc(Nc3ncc4cnn(-c5ccc6ccncc6c5)c4n3)cc2)CC1" ?
A: 1 to 5 µM

Q: Would you kindly share the measured IC50 for "CN1CCN(c2ccc(Nc3ncc4cnn(-c5cccc(C(C)(C)O)c5)c4n3)cn2)CC1" ?
A: 0.1 to 1 µM

Q: # lookup: IC50 of CN1CCN(c2ccc(Nc3ncc4c(=O)n(C)n(-c5cccc(N=S(C)(C)=O)n5)c4n3)cc2)CC1 [Compound 27A]
A: 0.1 to 1 µM

Q: Can you look up the measured IC50 of "CN1CCN(c2ccc(Nc3ncc4c(C(F)(F)F)nn(-c5cccc(C(C)(C)O)c5)c4n3)cc2)CC1" for me?
A: 5 to 20 µM

Q: Item under review: CN1CCN(c2ccc(Nc3ncc4cnn(-c5ccc6c(c5)C(C)(O)CO6)c4n3)cc2)CC1 (stereo not shown) . Reported IC50?
A: 0.1 to 1 µM

Q: For the molecule "CN1CCN(c2ccc(Nc3ncc4cnn(-c5cccc(N=S(C)(C)=O)c5)c4n3)nc2)CC1" , what IC50 is on record?
A: 5 to 20 µM

Q: # IC50 lookup, item "CN1CCN(c2ccc(Nc3ncc4cnn(-c5ccc(F)c(C(C)(C)O)c5)c4n3)cc2)CC1"
A: 0.1 to 1 µM

Q: Sample "CN1CCN(c2ccc(Nc3ncc4cnn(-c5ccc6ncc(C(C)(C)O)n6c5)c4n3)cc2)CC1" — what was its IC50?
A: 1 to 5 µM

Q: I have this molecule here, "CN1CCN(c2ccc(Nc3ncc4cnn(-c5cccc(N=S(C)(C)=O)n5)c4n3)cc2F)CC1" , and I need its recorded IC50.
A: 0.1 to 1 µM

Q: Given "CN1CCC(c2ccc(Nc3ncc4cnn(-c5cccc(N=S(C)(C)=O)n5)c4n3)cc2)CC1" , state its recorded IC50.
A: 0.1 to 1 µM

Q: Need IC50 of COc1nn(-c2cccc(N=S(C)(C)=O)n2)c2nc(Nc3ccc(N4CCN(C)CC4)cc3)ncc12 [Compound 27B] , thanks.
A: 0.1 to 1 µM

Q: Need IC50, item "CN1CCN(c2ccc(Nc3ncc4cnn(-c5ccc6scnc6c5)c4n3)cc2)CC1"
A: 0.1 to 1 µM

Q: # IC50 lookup, item "CN1CCN(c2ccc(Nc3ncc4cnn(-c5ccc6nncn6c5)c4n3)cc2)CC1"
A: 1 to 5 µM

Q: Need IC50 of "Cc1nc2cccc(-n3ncc4cnc(Nc5ccc(N6CCN(C)CC6)cc5)nc43)c2o1" , thanks.
A: 0.1 to 1 µM

Q: Return reported IC50; argument: "Cc1cc(Nc2ncc3cnn(-c4cccc(N=S(C)(C)=O)n4)c3n2)ccc1N1CCC(N(C)C)CC1"
A: < 0.1 µM

Q: Which IC50 reading was recorded for the molecule "CN1CCN(c2ccc(Nc3ncc4cnn(-c5cccc(-n6ccccc6=O)n5)c4n3)cc2)CC1" ?
A: 1 to 5 µM

Q: State the recorded IC50 for this entry: CN1CCN(c2ccc(Nc3ncc4cnn(-c5cccc6c5CCC6(C)O)c4n3)cc2)CC1 (stereo not shown)
A: 0.1 to 1 µM

Q: Entry CN1CCN(c2ccc(Nc3ncc4cnn(-c5ccc6c(c5)C(O)CO6)c4n3)cc2)CC1 (stereo not shown) has what IC50?
A: 0.1 to 1 µM

Q: What measured IC50 goes with "CN1CCN(c2ccc(Nc3ncc4cnn(-c5ccc6c(c5)C(=O)NC6)c4n3)cc2)CC1" ?
A: 0.1 to 1 µM

Q: I'd like to know its IC50. The molecule in question is C=CCn1c(=O)c2cnc(Nc3ccc(N4CCN(C)CC4)cc3)nc2n1-c1cccc(C(C)(C)O)n1 [AZD-1775, reference compound]
A: 0.1 to 1 µM

Q: Can you share its IC50? I mean this molecule: "CN1CCN(c2ccc(Nc3ncc4cnn(-c5cccc(N=S(C)(C)=O)n5)c4n3)cc2CO)CC1"
A: 0.1 to 1 µM

Q: # get_value(readout='IC50', item= "CN1CCN(c2c(Cl)cc(Nc3ncc4cnn(-c5cccc(N=S(C)(C)=O)n5)c4n3)cc2Cl)CC1" )
A: 0.1 to 1 µM

Q: Record request: IC50 value, item "CN1CCN(c2ccc(Nc3ncc4cnn(-c5ccc6cc[nH]c6c5)c4n3)cc2)CC1"
A: 1 to 5 µM

Q: # lookup: IC50 of "Cc1nc2ccc(-n3ncc4cnc(Nc5ccc(N6CCN(C)CC6)cc5)nc43)cc2n1C"
A: 0.1 to 1 µM

Q: Which value of IC50 has been reported for "CN1CCN(c2ccc(Nc3ncc4cnn(-c5cccc(N=S(C)(C)=O)c5F)c4n3)cc2)CC1" in the records?
A: 1 to 5 µM

Q: Which value of IC50 has been reported for "Cc1cc(Nc2ncc3cnn(-c4cccc(N=S(C)(C)=O)n4)c3n2)ccc1N1CCN(C)CC1" in the records?
A: 0.1 to 1 µM

Q: Report IC50 for "CN1CCN(C2CCN(c3ccc(Nc4ncc5cnn(-c6cccc(N=S(C)(C)=O)n6)c5n4)cc3)CC2)CC1" please.
A: 0.1 to 1 µM

Q: Consider the molecule "CN1CCN(c2ccc(Nc3ncc4cnn(-c5cc(C(C)(C)O)ccc5F)c4n3)cc2)CC1" and give its measured IC50.
A: 0.1 to 1 µM

Q: What does the record list as IC50 for "COc1cc(N2CCN(C)CC2)ccc1Nc1ncc2cnn(-c3cccc(N=S(C)(C)=O)n3)c2n1" ?
A: 5 to 20 µM

Q: Which IC50 is listed for "CN1CCC2(CC1)CCN(c1ccc(Nc3ncc4cnn(-c5cccc(N=S(C)(C)=O)n5)c4n3)cc1)CC2" ?
A: 0.1 to 1 µM
